Target: Human isolated Factor Xa (Homo sapiens, UniProt P00742)
Construct: purchased ThermoFisher Scientific (Waltham, MA, USA)
Sequence (P00742 235-488 limits assumed): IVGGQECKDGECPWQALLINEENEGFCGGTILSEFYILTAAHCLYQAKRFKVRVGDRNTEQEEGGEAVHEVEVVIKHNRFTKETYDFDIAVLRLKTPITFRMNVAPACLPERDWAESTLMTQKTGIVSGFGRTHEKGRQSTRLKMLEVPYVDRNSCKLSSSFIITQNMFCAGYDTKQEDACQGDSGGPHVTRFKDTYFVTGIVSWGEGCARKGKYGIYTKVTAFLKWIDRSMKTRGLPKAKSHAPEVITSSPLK
Sequence (P00742 41-179 partner limits assumed): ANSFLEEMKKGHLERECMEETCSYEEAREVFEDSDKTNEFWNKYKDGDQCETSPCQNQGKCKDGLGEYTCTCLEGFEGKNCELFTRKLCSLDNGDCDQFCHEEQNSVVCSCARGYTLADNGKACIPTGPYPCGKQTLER
Assay: Factor Xa activity assay (fluorescent substrate Boc-Leu-Gly-Arg-AMC)
Format: biochemical
Settings: 10 µM compound
Documented remaining activity at 10 µM across a set of compounds
Record the value in %, omitting the unit from your answer.

Below, each entry is followed by its recorded remaining activity at 10 µM result.
CC(C)(C)c1ccc(C(=O)n2nnc3ccccc32)cc1 :: 86.2
CCOc1ccc(C(=O)n2nnc3ccccc32)cc1 :: 30.3

# input for lookup
Sample COc1cc(SC)ccc1C(=O)n1nnc2ccccc21 ; remaining activity at 10 µM observed: 4.93

---

Molecular target: C1s (Homo sapiens)
Construct: Recombinant C1s and C1r fragments (CCP1-CCP2-SP, the γB catalytic region); made in house
Assay: C1s inhibition IC50 assay (thioester substrate Z-Lys-SBzl with DTNB, photometric)
Type: biochemical
Details: 1 mM Z-Lys-SBzl, enzyme below 1 nM; read-out: IC50 C1s
pIC50: −log10 of the molar value.
Label scheme for pIC50: lower than 6 is f, 6 and above is t.

Can CSc1nc(-c2ccco2)nn1C(=O)c1ccc(F)cc1 be said to have pIC50 at or above 6?
t

Can CCN(CC)c1ccc(C(=O)n2nnc3ccccc32)cc1 be said to have pIC50 at or above 6?
f

Can O=C(c1ccc(F)c(F)c1)n1nnc2ccccc21 be said to have pIC50 at or above 6?
f

Can COc1cc(SC)ccc1C(=O)n1nnc2ccccc21 be said to have pIC50 at or above 6?
t

Can Cc1sc2nc(-c3ccco3)oc(=O)c2c1C be said to have pIC50 at or above 6?
t

Can CC(=O)Oc1ccc2nc(-c3ccco3)oc(=O)c2c1 be said to have pIC50 at or above 6?
f

Can CC(=O)Nc1ccc(C(=O)n2nnc3ccccc32)cc1 be said to have pIC50 at or above 6?
t

Can O=c1nc(-c2cccs2)oc2cc(Cl)ccc12 be said to have pIC50 at or above 6?
t

Can CCOC(=O)CSc1nc(-c2cccnc2)nn1C(=O)c1ccccc1 be said to have pIC50 at or above 6?
f

Can O=C(c1ccc(-c2ccccc2)cc1)n1nnc2ccccc21 be said to have pIC50 at or above 6?
f

Can CCOc1ccc(C(=O)n2nnc3ccccc32)cc1 be said to have pIC50 at or above 6?
t

Can COc1ccc(C(=O)n2nnc3ccccc32)cc1OC be said to have pIC50 at or above 6?
f

Can COc1cc2nc(-c3ccco3)oc(=O)c2cc1OC be said to have pIC50 at or above 6?
f

Can O=c1oc(-c2ccco2)nc2cc(Cl)ccc12 be said to have pIC50 at or above 6?
t

Can O=c1oc(-c2ccco2)nc2ccc(Cl)cc12 be said to have pIC50 at or above 6?
f

---

Molecular target: C1s (Homo sapiens)
Construct: Recombinant C1s and C1r fragments (CCP1-CCP2-SP, the γB catalytic region); made in house
Sequence (P09871 438-688 limits assumed): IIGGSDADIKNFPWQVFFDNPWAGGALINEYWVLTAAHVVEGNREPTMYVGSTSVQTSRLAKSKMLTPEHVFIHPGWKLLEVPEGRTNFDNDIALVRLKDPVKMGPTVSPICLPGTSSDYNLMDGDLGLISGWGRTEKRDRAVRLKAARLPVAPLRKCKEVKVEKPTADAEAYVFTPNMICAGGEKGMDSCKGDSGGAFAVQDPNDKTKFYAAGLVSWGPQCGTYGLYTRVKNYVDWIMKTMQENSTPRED
Test: C1s inhibition IC50 assay (thioester substrate Z-Lys-SBzl with DTNB, photometric)
Assay type: biochemical
Conditions: 1 mM Z-Lys-SBzl, enzyme below 1 nM; read-out: IC50 C1s
experimental-endpoint: pIC50
Remember the convention: pIC50 equals -log10 of concentration in molar.

Below, each entry is followed by its recorded pIC50 result.
O=c1nc(-c2ccco2)oc2ccc(Cl)cc12 [Entry 22] :: 5.44
Cc1cccc2c(=O)nc(-c3ccco3)oc12 [Entry 23] :: 4.39

Record Cc1cc2c(=O)oc(-c3ccccc3Br)nc2s1 [Entry 18] has C1s (Homo sapiens) pIC50 equal to 6.07

Record CSc1nc(-c2ccco2)nn1C(=O)c1ccccc1 [Entry 11] has C1s (Homo sapiens) pIC50 equal to 7.03

Record COc1ccccc1C(=O)n1nc(-c2ccco2)nc1SC [Entry 9] has C1s (Homo sapiens) pIC50 equal to 7.92

---

Molecular target: C1s (Homo sapiens)
Construct: Recombinant C1s and C1r fragments (CCP1-CCP2-SP, the γB catalytic region); made in house
Assay: C1s inhibition IC50 assay (thioester substrate Z-Lys-SBzl with DTNB, photometric)
Type: biochemical
Settings: 1 mM Z-Lys-SBzl; text and Figure S1; read-out: IC50 C1s
experimental-endpoint: IC50 (nM)
Record the value in nM, omitting the unit from your answer.

CCOc1ccc(C(=O)n2nnc3ccccc32)cc1 :: 83.3
COc1ccccc1C(=O)n1nc(-c2ccco2)nc1SC :: 11.6
CC(=O)Nc1ccc(C(=O)n2nnc3ccccc32)cc1 :: 90.8

Sample CSc1nc(-c2ccco2)nn1C(=O)c1ccccc1 ; IC50 observed: 93.6

Sample CSc1nc(-c2ccco2)nn1C(=O)c1ccc(F)cc1 ; IC50 observed: 43.6

---

Molecular target: Human isolated Factor Xa (Homo sapiens)
Construct: purchased ThermoFisher Scientific (Waltham, MA, USA)
Assay: Factor Xa activity assay (fluorescent substrate Boc-Leu-Gly-Arg-AMC)
Type: biochemical
Conditions: 10 µM compound
experimental-endpoint: remaining activity at 10 µM (%)
Record the value in %, omitting the unit from your answer.

Sample O=c1nc(-c2cccs2)oc2cc(Cl)ccc12 ; remaining activity at 10 µM observed: 53.6

Sample CCOC(=O)CSc1nc(-c2cccnc2)nn1C(=O)c1ccccc1 ; remaining activity at 10 µM observed: 85.4

Sample COc1ccc(C(=O)n2nnc3ccccc32)cc1OC ; remaining activity at 10 µM observed: 48.3

Sample O=C(c1ccc(-c2ccccc2)cc1)n1nnc2ccccc21 ; remaining activity at 10 µM observed: 92.1

Sample COc1cc2nc(-c3ccco3)oc(=O)c2cc1OC ; remaining activity at 10 µM observed: 61.4

Sample CSc1nc(-c2ccco2)nn1C(=O)c1ccc(F)cc1 ; remaining activity at 10 µM observed: 78.1

Sample O=c1oc(-c2ccco2)nc2ccc(Cl)cc12 ; remaining activity at 10 µM observed: 82

Sample COc1ccccc1C(=O)n1nc(-c2ccco2)nc1SC ; remaining activity at 10 µM observed: 2.39

Sample CC(=O)Oc1ccc2nc(-c3ccco3)oc(=O)c2c1 ; remaining activity at 10 µM observed: 77.6

Sample CCN(CC)c1ccc(C(=O)n2nnc3ccccc32)cc1 ; remaining activity at 10 µM observed: 76.5

Sample O=C(c1ccc(F)c(F)c1)n1nnc2ccccc21 ; remaining activity at 10 µM observed: 92.3

---

Biological target: Human isolated Factor Xa (Homo sapiens)
Construct: purchased ThermoFisher Scientific (Waltham, MA, USA)
Assay: Factor Xa activity assay (fluorescent substrate Boc-Leu-Gly-Arg-AMC)
Assay type: biochemical
Conditions: 10 µM compound
Mark MET only for remaining activity at 10 µM values smaller than 40%; exact matches and larger values are NOT MET.

Example cases with answers are listed next.
Cc1cc2c(=O)oc(-c3ccccc3Br)nc2s1 :: NOT MET
O=c1oc(-c2ccco2)nc2cc(Cl)ccc12 :: NOT MET
Cc1sc2nc(-c3ccco3)oc(=O)c2c1C :: NOT MET

# check: remaining activity at 10 µM < 40% for CC(=O)Nc1ccc(C(=O)n2nnc3ccccc32)cc1
NOT MET

# check: remaining activity at 10 µM < 40% for O=c1nc(-c2ccco2)oc2ccc(Cl)cc12
MET

# check: remaining activity at 10 µM < 40% for CSc1nc(-c2ccco2)nn1C(=O)c1ccccc1
MET

---

Target: Human isolated Factor Xa (Homo sapiens, UniProt P00742)
Construct: purchased ThermoFisher Scientific (Waltham, MA, USA)
Assay: Factor Xa activity assay (fluorescent substrate Boc-Leu-Gly-Arg-AMC)
Assay type: biochemical
Conditions: 500 µM Boc-Leu-Gly-Arg-AMC
experimental-endpoint: IC50 (nM)
Record the value in nM, omitting the unit from your answer.

Record COc1ccccc1C(=O)n1nc(-c2ccco2)nc1SC [Entry 9] has Human isolated Factor Xa (Homo sapiens, UniProt P00742) IC50 equal to 1250
